Biological target: T1, mouse CD112R overexpressed on 293T cells (mouse)
T1 construct: whole, on cells; also called 293T.mCD112R; 293T-mouse CD112R
Experiment: flow cytometry, 293T cells overexpressing mouse CD112R
Measured gMFI (fold increase over isotype), listed per entry for reference.

Here's what some known entries look like.
Per the records, this binder ( Antibody 58 (antibody, V domains shown, Purified as IgG; compared with an IgG1 isotype control and detected with anti-human IgG Fc; also called antibody clone number 58; clone 58) VH: EVQLVESGGGLVQPGRSLRLSCTASGFTFGDYAMSWFRQAPGKGLEWVGFIGSKFYGGETEYTASVKGRFTISRDGSKSIAYLQMNSLKTEDTAVYYCARGPRRYTYGMDVWGQGTTVTVSS VL: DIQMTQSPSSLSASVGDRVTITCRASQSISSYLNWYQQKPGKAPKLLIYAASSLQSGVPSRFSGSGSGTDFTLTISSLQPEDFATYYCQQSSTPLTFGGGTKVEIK ) has gMFI (fold increase over isotype) equal to 79.4 fold increase over isotype

Just so you know, measured gMFI (fold increase over isotype) for Antibody 32 (antibody, V domains shown, Purified as IgG; compared with an IgG1 isotype control and detected with anti-human IgG Fc; also called antibody clone number 32; parent clone 32) VH: QVQLVQSGAEVKKPGSSVKVSCKASGGTFSSYAISWVRQAPGQGLEWMGGIIPISGTANYAQKFQGRVTITADESTSTAYMELSSLRSEDTAVYYCARDTGRGYTRHFWFDPWGQGTLVTVSS VL: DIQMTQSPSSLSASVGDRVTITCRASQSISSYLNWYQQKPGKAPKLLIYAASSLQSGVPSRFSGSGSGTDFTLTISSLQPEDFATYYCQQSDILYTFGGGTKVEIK came out at 14.9 fold increase over isotype

Now look at this entry.
Per the record, Antibody 35 (antibody, V domains shown, Purified as IgG; compared with an IgG1 isotype control and detected with anti-human IgG Fc; also called antibody clone number 35; clone 35) VH: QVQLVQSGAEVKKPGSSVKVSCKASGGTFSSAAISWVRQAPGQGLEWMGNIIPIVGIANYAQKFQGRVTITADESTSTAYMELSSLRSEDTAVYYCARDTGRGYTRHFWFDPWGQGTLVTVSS VL: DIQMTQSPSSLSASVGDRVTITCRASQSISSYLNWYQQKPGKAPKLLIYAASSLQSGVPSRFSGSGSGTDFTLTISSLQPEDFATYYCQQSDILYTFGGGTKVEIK has gMFI (fold increase over isotype) of 55.6 fold increase over isotype
